# test.protocol: Caco-2 (TC7) A-B Permeability test (pH 6.5/7.4)
# setup.conditions: human, Caco-2, pH 6.5, Caco-2 recovery, pH 6.5/7.4, 10 μM compound
measure: recovery at 10 µM (%)
Respond numerically; units are % and should not be typed.

Task: Return value of recovery at 10 µM for input Cc1ccc(F)cc1C[C@H](C)Nc1cc[nH]c(=O)c1-c1nc2cc3c(cc2[nH]1)C(=O)N(CCN1CCCC1)C3 [compound (II)] , no commentary.
Output: 49

---

# study.target: ALK (Homo sapiens, UniProt Q9UM73)
# Sequence (Q9UM73 with tags, fused parts or gaps): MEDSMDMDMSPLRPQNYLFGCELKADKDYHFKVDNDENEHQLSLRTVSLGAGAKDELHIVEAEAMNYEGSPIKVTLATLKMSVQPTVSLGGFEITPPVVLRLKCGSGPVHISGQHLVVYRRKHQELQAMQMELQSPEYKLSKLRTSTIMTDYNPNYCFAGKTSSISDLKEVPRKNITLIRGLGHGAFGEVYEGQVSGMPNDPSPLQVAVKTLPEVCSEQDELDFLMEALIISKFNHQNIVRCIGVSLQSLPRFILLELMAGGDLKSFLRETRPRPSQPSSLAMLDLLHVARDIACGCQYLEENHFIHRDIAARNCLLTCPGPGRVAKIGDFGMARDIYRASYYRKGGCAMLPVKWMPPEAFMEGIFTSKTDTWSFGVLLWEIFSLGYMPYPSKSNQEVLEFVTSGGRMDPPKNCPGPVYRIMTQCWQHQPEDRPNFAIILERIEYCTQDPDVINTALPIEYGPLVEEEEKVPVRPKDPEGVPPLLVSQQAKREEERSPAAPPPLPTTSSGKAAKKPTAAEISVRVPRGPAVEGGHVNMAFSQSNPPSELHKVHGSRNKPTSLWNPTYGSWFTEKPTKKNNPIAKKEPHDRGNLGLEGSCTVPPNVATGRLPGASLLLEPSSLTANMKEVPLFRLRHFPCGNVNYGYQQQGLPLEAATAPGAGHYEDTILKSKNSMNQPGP
# test.protocol: ALK kinase assay (Kinase-Glo / AlphaScreen, purified NPM-ALK);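 note: recombinant baculovirus-expressed ALK kinase domain, activity read either as leftover ATP by Kinase-Glo luminescence or as poly(Glu-Tyr) phosphorylation by anti-phosphotyrosine AlphaScreen proximity signal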
# Type: biochemical
# Design: fused to the complete intracytoplasmic portion of ALK containing the functional tyrosine kinase domain; 6xHis; made in house; host or cells: insect cells; the other entry of the earlier key: NPM1 (P06748, Nucleophosmin)
# setup.conditions: Table 1; read-out: ALK IC50
measure: IC50

Sample answers from the record:
| compound | value.reported |
| --- | --- |
| Cc1c(F)cc(F)cc1C[C@H](C)Nc1cc[nH]c(=O)c1-c1nc2cc3c(cc2[nH]1)CN(CCN(C)C)C3=O | 100 to 250 nM |
| Cc1noc(C)c1CC(C)Nc1cc[nH]c(=O)c1-c1nc2cc3c(cc2[nH]1)C(=O)N(CCCN1CCCC1)C3=O (stereo not shown) | > 1000 nM |
| C[C@@H](Cc1sccc1Cl)Nc1cc[nH]c(=O)c1-c1nc2cc3c(cc2[nH]1)CN(CCN1CCCC1)C3=O | 10 to 100 nM |

Below: the item to evaluate.
Task: Return reported IC50. Input compound: "Cc1ccsc1C[C@H](C)Nc1cc[nH]c(=O)c1-c1nc2cc3c(cc2[nH]1)C(=O)N(CCN(C)CCS(C)(=O)=O)C3=O"
Output: 100 to 250 nM

---

# test.protocol: Caco-2 (TC7) A-B Permeability test (pH 6.5/7.4)
# setup.conditions: human, Caco-2, pH 6.5, Mean Permeability, A-B Permeability (TC7, pH 6.5/7.4), test concentration 1.0E−05 M, mean of n = 2
measure: Papp A→B at 10 µM
Please provide the amount together with its unit, number first.

Examples with their reported Papp A→B at 10 µM follow.
| molecule | value.reported |
| --- | --- |
| CNC(=C[N+](=O)[O-])NCCSCc1ccc(CN(C)C)o1 | 0.6 ×10⁻⁶ cm/s |
| Cc1ccc(F)cc1C[C@H](C)Nc1cc[nH]c(=O)c1-c1nc2cc3c(cc2[nH]1)C(=O)N(CCN1CCCC1)C3 | 0.4 ×10⁻⁶ cm/s |

// next item, Papp A→B at 10 µM requested
Task: Given CC(CCc1ccccc1)NCC(O)c1ccc(O)c(C(N)=O)c1 (stereo not drawn) , respond with its Papp A→B at 10 µM.
Output: 6 ×10⁻⁶ cm/s

---

# test.protocol: Liver microsome stability, Mouse LM-P1 / MLM
# Type: in vitro ADME
# setup.conditions: mouse, liver microsomes
# half-life per record follows
Number only, in min; omit the unit.

Some solved entries appear below for comparison.
| molecule | value.reported |
| --- | --- |
| Cc1ccc(F)cc1C[C@H](C)Nc1cc[nH]c(=O)c1-c1nc2cc3c(cc2[nH]1)C(=O)N(CCN1CCCC1)C3 [drawing 368] | 13.1 |
| C[C@@H](Cc1cc(F)cc(F)c1F)Nc1cc[nH]c(=O)c1-c1nc2cc3c(cc2[nH]1)CN(CCN1CCCC1)C3=O [drawing 369] | 22.1 |

Then this molecule:
Task: For the molecule C[C@@H](Cc1c(F)c(F)cc(F)c1F)Nc1cc[nH]c(=O)c1-c1nc2cc3c(cc2[nH]1)CN(CCN1CCCC1)C3=O [drawing 370] , give its reported half-life.
Output: 29

Data provenance: patent US9249147B2
